# Tested on: T-cell
# protocol.description: IL-2 secretion from T-cells co-stimulated with anti-CD3 and anti-CD28 antibody (Biological Example 2)
# Assay type: cell-based, human
# test.context: Homo sapiens, T-cell, 1 μM compound; primary human total T-cells; baseline = anti-CD3/anti-CD28 stimulated cells without inhibitor; read-out: IL-2 secretion, Anti-CD3/Anti-CD28 stimulation, fold change over baseline
Each record here notes measured fold induction at 1 µM.

# compound, fold induction at 1 µM
records = [
    ("Cn1cnnc1C[C@]1(c2cccc(N3Cc4c(cc(CN5CCC6(CC6)C5)cc4C(F)(F)F)C3=O)c2)CCOC1 (single isomer, unassigned) [Compound 517b]", "> 7.5"),
    ("Cn1cnnc1CC1(c2cccc(N3Cc4c(cc(CN5CC[C@H]6C[C@H]65)cc4C(F)(F)F)C3=O)c2)COC1 (single isomer, unassigned) [Compound 486a]", "> 7.5"),
    ("Cn1cnnc1CC1(c2cccc(N3Cc4c(cc(CN5CCC(F)(F)C5)cc4C(F)(F)F)C3=O)c2)COC1 [Compound 411]", "> 7.5"),
    ("Cn1cnnc1C[C@]1(c2cccc(N3Cc4c(cccc4C(F)(F)F)C3=O)c2)C[C@H](CO)C1 [Compound 470]", "2.51 to 5"),
    ("Cn1cnnc1-c1cnn(C)c1-c1cccc(N2Cc3c(cccc3C(F)(F)F)C2=O)c1 [Compound 523]", "1.01 to 2.5"),
    ("Cn1cnnc1CC1(c2cccc(N3Cc4c(cc(CN5CC[C@H](C#N)C5)cc4C(F)(F)F)C3=O)c2)COC1 [Compound 422]", "> 7.5"),
]

###

# Test system: primary human total T-cells
# protocol.description: T-cell activation assessed by cytokine secretion (GM-CSF, IFNγ, TNFα)
# Type: cell-based
# test.context: CD3/CD28 stimulation, 10 μM, read-out: IFNγ secretion
# Experimental: Peripheral blood mononuclear cells (PBMC) were obtained either: 1) by using Ficoll-Paque™ (GE Healthcare) for separation of peripheral blood hematopoietic cells from buffy coats of healthy human donors; or 2) directly from FeukoPak donations. […] Supernatants were analyzed for cytokine secretion (e.g., GM-CSF, IFNγ and TNFα) by ELISA (R&D Systems, Peprotech or Life Technologies) or Luminex multiplex kits (Procarta Life Technologies) following manufacturer's protocol. […]
metric.name: fold induction at 10 µM

# smiles.record, experimental.value
measured = [
    ("COC1CN(Cc2cc3c(c(C(F)(F)F)c2)CN(c2cccc([C@@](C)(F)C(F)(F)c4nncn4C)c2)C3=O)C1", "2.01 to 3"),
    ("C[C@@H](c1cc2c(c(C(F)(F)F)c1)CN(c1cccc(C3(Cc4nncn4C)COC3)c1)C2=O)N1CC[C@H](F)C1", "> 4"),
    ("C[C@H](Cc1nncn1C)c1cccc(NC(=O)c2cccc(CCO)n2)c1", "> 4"),
    ("Cc1n[nH]c(C)c1-c1cc2c(c(C(F)(F)F)c1)CN(c1cccc(C3(Cc4nncn4C)COC3)c1)C2=O", "> 4"),
    ("Cn1cnnc1CC1(c2cccc(N3Cc4c(cc(CN5CC(F)C5)cc4C(F)(F)F)C3=O)c2)COC1", "> 4"),
    ("Cn1cnnc1C(F)(F)[C@](C)(F)c1cccc(N2Cc3c(cc(CN4CC[C@@H](C#N)C4)cc3C(F)(F)F)C2=O)c1", "> 4"),
    ("C[C@H](Cc1nncn1C)c1cccc(N2Cc3c(cc(CN4CC[C@](C)(O)C4)cc3C(F)(F)F)C2=O)c1", "> 4"),
    ("C[C@H](Cc1nncn1C)c1cccc(NC(=O)c2n[nH]c3c2CCC3)c1", "2.01 to 3"),
    ("C[C@H](Cc1nncn1C)c1cccc(N2Cc3c(cc(CN4CC(O)C4)cc3C(F)(F)F)C2=O)c1", "> 4"),
    ("C[C@H](Cc1nncn1C)c1cccc(NC(=O)c2cc3cc(N4CCNCC4)ccc3cn2)c1", "< 2"),
]

Origin of values: patent US20220324835A1
